This collection of values is drawn from patent US5228957A.

- Assay Comment: Extractive distillation agent separating methyl t-butyl ether from n-pentane-cyclopentane mixtures (vapor-liquid equilibrium still)
- Type: physicochemical
- Applied Conditions: cyclopentane to methyl t-butyl ether, n-pentane-cyclopentane mixture, with agent
Measurement Kind: Relative Volatility CyP/MTBE
# respond with the number and nothing more

In the examples that follow, each entry is paired with its recorded Relative Volatility CyP/MTBE.
Item CCC[N+](=O)[O-] [1-Nitropropane] has what recorded Relative Volatility CyP/MTBE? 2.8

What value of Relative Volatility CyP/MTBE has been reported for the following molecule? CC(=O)c1ccccc1 [Acetophenone] 1.7

Field request: Relative Volatility CyP/MTBE | item: CCOC(=O)CC(=O)OCC [Diethyl malonate] 2.0

What does the record list as Relative Volatility CyP/MTBE for CC1=CC(=O)CC(C)(C)C1 [Isophorone] ? 1.5

Request the reported Relative Volatility CyP/MTBE associated with CC(=O)OCCOC(C)=O [Ethylene glycol diacetate] 1.8

Read the next record carefully.
Which Relative Volatility CyP/MTBE reading was recorded for the molecule CC(=O)OC(C)C [Isopropyl acetate] ? 1.8

---

- Assay Comment: Extractive distillation agent separating methyl t-butyl ether from 1-pentene (vapor-liquid equilibrium still)
- Type: physicochemical
- Applied Conditions: 1-pentene to methyl t-butyl ether, with agent
Measurement Kind: Relative Volatility
The response must contain the number and no unit.

Recorded results for 5 compounds are shown here.
What does the data say about its Relative Volatility? Entry: CC(O)COc1ccccc1 (stereo not drawn) [Propylene glycol phenyl ether] 3.2

Look at this compound and give its reported Relative Volatility. CCOC(=O)CC(=O)OCC [Diethyl malonate] 3.1

Given the entry C[S+](C)[O-] [Dimethylsulfoxide] , report its measured Relative Volatility. 3.9

Need Relative Volatility of CC(=O)CCC(C)C [Methyl isoamyl ketone] , thanks. 2.6

Given the entry COCC(C)OC(C)=O (stereo not drawn) [1-Methoxy-2-propanol acetate] , report its measured Relative Volatility. 3.5

Further cases:
Quick check: Relative Volatility of CC(=O)OCCOC(C)=O [Ethylene glycol diacetate] ? 5.5

---

Catalogue of Relative Volatility readings, one per entry.
- Assay Comment: Extractive distillation agent separating methyl t-butyl ether from 1-pentene (vapor-liquid equilibrium still)
- Assay type: physicochemical
No unit in the answer, please; the number alone is enough.

Recorded results for 3 compounds are shown here.
Need Relative Volatility, item CN(C)C=O [Dimethylformamide] 3.0

Name the reported Relative Volatility value associated with the compound O=S1(=O)CCCC1 4.4

Query (compound): CC[N+](=O)[O-] ; field requested: Relative Volatility 3.0

Now let's try a different one.
If you can, please state the reported Relative Volatility value of COCCO . 3.6

---

A collection of molecules and their measured Relative Volatility Pnt/MTBE
- Assay Comment: Extractive distillation agent separating methyl t-butyl ether from n-pentane-cyclopentane mixtures (vapor-liquid equilibrium still)
- Assay type: physicochemical
- Applied Conditions: n-pentane to methyl t-butyl ether, n-pentane-cyclopentane mixture, with agent
Form: value (number only, do not type unit).

Name the reported Relative Volatility Pnt/MTBE value associated with the molecule CN1CCCC1=O 3.9

Entry CC(=O)CC(C)=O has what Relative Volatility Pnt/MTBE? 3.4

Request the reported Relative Volatility Pnt/MTBE associated with COC(=O)c1ccccc1O [Methyl salicylate] 1.9

---

- Assay Comment: Extractive distillation agent separating methyl t-butyl ether from n-pentane-cyclopentane mixtures (vapor-liquid equilibrium still)
- Assay type: physicochemical
- Applied Conditions: cyclopentane to methyl t-butyl ether, n-pentane-cyclopentane mixture, with agent
Counter-ions that a name gives are not always drawn.
Measurement Kind: Relative Volatility CyP/MTBE
Please give only the number in your answer, with no unit.

The examples below pair each entry with its known result.
// lookup Relative Volatility CyP/MTBE for CC(O)COc1ccccc1 (centres unmarked) [Propylene glycol phenyl ether] 2.0

Looking for the measured Relative Volatility CyP/MTBE of CC(=O)CCC(C)C [Methyl isoamyl ketone] , can you help? 1.7

For the compound C[S+](C)[O-] [Dimethylsulfoxide] , what Relative Volatility CyP/MTBE is on record? 2.7

Look up Relative Volatility CyP/MTBE: CCOC(C)=O [Ethyl acetate] 1.8

Please give the measured Relative Volatility CyP/MTBE for this compound: CCCOC(C)=O [n-Propyl acetate] 1.8

Give the measured Relative Volatility CyP/MTBE of CCCCCCOC=O [n-Hexyl formate] . 1.6

# query: Relative Volatility CyP/MTBE of entry CCOC(=O)CC(C)C [Ethyl isovalerate] 1.5

Given the entry CC(=O)CC(C)=O [2,4-Pentanedione] , report its measured Relative Volatility CyP/MTBE. 1.9

Next:
Find the recorded Relative Volatility CyP/MTBE belonging to CN1CCCC1=O [1-Methyl-2-pyrrolidinone] and report it. 1.8

Need Relative Volatility CyP/MTBE, item CCOC(=O)/C=C\C(=O)OCC [Diethyl maleate] 1.8

Please look up its Relative Volatility CyP/MTBE: CCOC(=O)CC(C)=O [Ethyl acetoacetate] 1.9

---

- Assay Comment: Extractive distillation agent separating methyl t-butyl ether from n-pentane-cyclopentane mixtures (vapor-liquid equilibrium still)
- Assay type: physicochemical
- Applied Conditions: n-pentane to methyl t-butyl ether, n-pentane-cyclopentane mixture, with agent
Where a name gives a salt, the structure may show the parent alone.
Measurement Kind: Relative Volatility Pnt/MTBE
Just the number.

# Relative Volatility Pnt/MTBE lookup, item CCOC(=O)CC(C)C [Ethyl isovalerate] 2.5

Which Relative Volatility Pnt/MTBE is listed for CCOC(C)=O [Ethyl acetate] ? 2.9

Fill in the blank: the reported Relative Volatility Pnt/MTBE of CC(=O)OC(C)C [Isopropyl acetate] is ____. 3.1

May I ask what Relative Volatility Pnt/MTBE has been recorded for CCCCCCOC=O [n-Hexyl formate] ? 1.6

Would you mind telling me what Relative Volatility Pnt/MTBE value was observed for CC1=CC(=O)CC(C)(C)C1 [Isophorone] ? 2.8

For the molecule C[S+](C)[O-] [Dimethylsulfoxide] , what Relative Volatility Pnt/MTBE is on record? 2.8

Could you now consider this next molecule?
What does the record list as Relative Volatility Pnt/MTBE for CCOC(=O)OCC [Diethyl carbonate] ? 3.1

---

- Assay Comment: Extractive distillation agent separating methyl t-butyl ether from n-pentane-cyclopentane mixtures (vapor-liquid equilibrium still)
- Format: physicochemical
- Applied Conditions: n-pentane to methyl t-butyl ether, n-pentane-cyclopentane mixture, with agent
Counter-ions that a name gives are not always drawn.
# Relative Volatility Pnt/MTBE listing for each entry below
Give the figure by itself; no unit, no explanation.

See these solved cases before continuing.
Any idea what its Relative Volatility Pnt/MTBE is? The compound is CC(C)[N+](=O)[O-] 3.8

# Relative Volatility Pnt/MTBE lookup, item CCOC(=O)/C=C\C(=O)OCC [Diethyl maleate] 3.4

Continuing:
Recorded Relative Volatility Pnt/MTBE of CC(=O)OCCOC(C)=O [Ethylene glycol diacetate] , please. 3.3
